- assay notes: in vitro
- condition details: human, hela cells, % viability
reported property: viability at 28.5 h, 10 µM (%)

[[record]]
molecule = "COc1ccc(CN2CCC(O)CC2)c(OC)c1"
endpoint_value = 95.9

[[record]]
molecule = "Cc1ccc(NS(=O)(=O)c2cc(C(=O)Nc3ccc(S(=O)(=O)N4CCCC4)cc3)ccc2C)cc1"
endpoint_value = 89.8

[[record]]
molecule = "COc1cccc2ncn(CCCn3cccn3)c(=O)c12"
endpoint_value = 89.7

[[record]]
molecule = "O=C(CSc1nc2[nH]ncc2c(=O)n1-c1ccccc1)Nc1ccc(F)c(Cl)c1"
endpoint_value = 97.6

[[record]]
molecule = "O=C(c1ccc(-c2nccnc2NCc2ccc(C(F)(F)F)cc2)cc1)N1CCOCC1"
endpoint_value = 100

[[record]]
molecule = "CCCn1c(N)c(C(=O)CSc2ncnc3sc4c(c23)CCCC4)c(=O)[nH]c1=O"
endpoint_value = 77.8

[[record]]
molecule = "COc1ccc(-c2cc(C(=O)Nc3ccc(S(N)(=O)=O)cc3)c3ccccc3n2)cc1OC"
endpoint_value = 93.1

[[record]]
molecule = "c1ccc2c(c1)nnn2CNCn1nnc2ccccc21"
endpoint_value = 85.4

[[record]]
molecule = "N#CC1=C(N)Oc2[nH]nc(-c3cccs3)c2C1c1ccco1 (centres unmarked)"
endpoint_value = 99

[[record]]
molecule = "CCCn1cnc2cc(NC(=O)C3CCN(S(=O)(=O)c4ccc(F)cc4)C3)ccc21 (centres unmarked)"
endpoint_value = 85.8

[[record]]
molecule = "Cc1cc2c(o1)c1cnn(CC(=O)N3CCCC3)c(=O)c1n2C(C)C"
endpoint_value = 89

[[record]]
molecule = "COc1cc2c(cc1CNS(=O)(=O)c1ccc3[nH]c(=O)[nH]c(=O)c3c1)CCC2"
endpoint_value = 98.7

[[record]]
molecule = "COC(=O)c1c(NC(=S)NCc2cccnc2)sc(C)c1C"
endpoint_value = 89.2

[[record]]
molecule = "CCOc1cc(NC2CCN(C(=O)NCC(F)F)CC2)ncn1"
endpoint_value = 85.6

[[record]]
molecule = "O=C(CSc1nnc(-c2ccccc2O)n1Cc1ccccc1)NC12CC3CC(CC(C3)C1)C2"
endpoint_value = 88.9

[[record]]
molecule = "COc1ccc(Sc2nc3ccccc3nc2N2CCCC2)cc1OC"
endpoint_value = 101

[[record]]
molecule = "CCn1c(CNC(=O)c2cn3cc(C)ccc3n2)nc2ccccc21"
endpoint_value = 89.4

[[record]]
molecule = "CC(C)Cc1nc(Cn2cnc3c(cnn3C)c2=O)no1"
endpoint_value = 90.7

[[record]]
molecule = "CCN(CC)C(=O)[C@@H](C)C1CC[C@@]2(C)CC[C@H](NC(=O)C3CC3)[C@@H](C)[C@@H]2[C@H]1O (some centres unmarked)"
endpoint_value = 97.5

[[record]]
molecule = "CS(=O)(=O)Nc1cc2ccccc2c(-c2ccc3c(c2)CCO3)n1"
endpoint_value = 90.5

[[record]]
molecule = "CCCCN(C)S(=O)(=O)NCc1cn2ccccc2n1"
endpoint_value = 97.9

[[record]]
molecule = "Cc1nn(-c2ccccc2)c(C)c1C1CC(=O)Nc2c1cnn2C(C)C (centres unmarked)"
endpoint_value = 104

[[record]]
molecule = "CCOC(=O)c1cc(S(=O)(=O)NC2CCN(C(=O)OCC)CC2)cn1C"
endpoint_value = 90.1

[[record]]
molecule = "O=C(CC1Nc2ccccc2NC1=O)Nc1cccc(C(=O)O)c1 (centres unmarked)"
endpoint_value = 102

[[record]]
molecule = "O=C(Nc1ccc2[nH]ccc2c1)c1ccc(F)c(F)c1"
endpoint_value = 88.3

[[record]]
molecule = "COc1ccc2[nH]c3c(c2c1)CCN1C(c2ccco2)N2CCC31CC2 (centres unmarked)"
endpoint_value = 88

[[record]]
molecule = "Cc1cccc(C)c1NC(=O)CC(CN1CCN(Cc2c(C)noc2C)CC1)C(=O)O (centres unmarked)"
endpoint_value = 89.8

[[record]]
molecule = "COc1ccc(OC(=O)c2csc(Cc3c(Cl)cccc3Cl)n2)cc1"
endpoint_value = 95.7

[[record]]
molecule = "CN(C)CC(C)(C)CNC(=O)c1ccccc1-n1cccc1"
endpoint_value = 92.3

[[record]]
molecule = "O=C1c2ccccc2C(=O)N1CCCc1nc2c3c4c(sc3ncn2n1)CCCCC4"
endpoint_value = 93.4

[[record]]
molecule = "O=C(O)CCCn1cc(NC(=O)c2ccc(Br)o2)cn1"
endpoint_value = 106

[[record]]
molecule = "Cc1cc(C)nc(N/C(=N/C(=O)CCN2C(=O)c3ccccc3C2=O)Nc2cccc(Cl)c2)n1"
endpoint_value = 97

[[record]]
molecule = "Cn1c(=O)c2[nH]c(N3CCCNCC3)nc2n(C)c1=O"
endpoint_value = 97

[[record]]
molecule = "NS(=O)(=O)c1ccc(NC(=S)N2CCN(CCc3ccccc3)CC2)cc1"
endpoint_value = 97.6

[[record]]
molecule = "Cc1cc(NCC2(CO)CCOCC2)nc(N2CCCC2)n1"
endpoint_value = 85.8

[[record]]
molecule = "O=c1[nH]c2ncc(-c3ccsc3)nc2n1C1CCCCC1"
endpoint_value = 92.6

[[record]]
molecule = "CN1CCN(S(=O)(=O)c2ccccc2Br)CC1"
endpoint_value = 93.2

[[record]]
molecule = "COc1cc2c(c(OC)c1OC)C(c1ccccc1C)CC(=O)N2 (centres unmarked)"
endpoint_value = 109

